All values here come from patent US11873298B2.

Measured SCD1 % Max Inhibition accompanies every entry in the list below.
- TARGET OF ASSAY: SCD1 (Homo sapiens)
- Construct: host or cells: S. cerevisiae ole1Δ strain (W303 pdr1Δ pdr3Δ background), plasmid pRS316 with TDH3 promoter and CYC1 terminator
- Sequence (O00767 1-359): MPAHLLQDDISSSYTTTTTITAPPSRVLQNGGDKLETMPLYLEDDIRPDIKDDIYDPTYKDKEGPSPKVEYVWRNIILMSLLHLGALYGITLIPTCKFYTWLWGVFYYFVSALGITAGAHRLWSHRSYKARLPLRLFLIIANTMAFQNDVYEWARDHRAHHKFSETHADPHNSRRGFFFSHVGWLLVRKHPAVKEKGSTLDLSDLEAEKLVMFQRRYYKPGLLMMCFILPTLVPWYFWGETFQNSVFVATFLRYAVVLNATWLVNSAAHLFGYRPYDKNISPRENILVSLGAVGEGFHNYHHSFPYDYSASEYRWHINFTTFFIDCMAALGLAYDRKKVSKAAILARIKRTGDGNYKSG
- RUN DESCRIPTION: Growth inhibition of humanized yeast strain expressing SCD1 as sole desaturase
- Type: cell-based
- ASSAY CONDITIONS: humanized yeast strain expressing SCD1
OBSERVABLE: SCD1 % Max Inhibition (%)

MOLECULE SMILES | TARGET OF ASSAY | RESULT UNIT | MEASURED NUMBER
O=C(NCC(=O)N1CCC(c2nc(-c3ccc4c(c3)OC(F)(F)O4)no2)CC1)c1ccccc1 | SCD1 (Homo sapiens) | % | 84.36
CC(C)OC(=O)N1CCC(c2nc(-c3ccc4cnn(C(C)C)c4c3)no2)CC1 | SCD1 (Homo sapiens) | % | 64.32
COC(=O)N1CCC(c2nc(-c3ccc4cnn(C(C)C)c4c3)no2)CC1 | SCD1 (Homo sapiens) | % | 71.31
Cc1nn(C)c2cc(-c3noc(C4CCN(C(=O)N5CCOCC5)CC4)n3)ccc12 | SCD1 (Homo sapiens) | % | 72.9
Cc1nn(C)c2cc(-c3noc(C4CCN(C(=O)CNC(=O)c5ccncc5)CC4)n3)ccc12 | SCD1 (Homo sapiens) | % | 71.25
CNC(=O)c1ccc(-c2noc(C3CCN(C(=O)[C@H]4CC(=O)N(c5ccccc5)C4)CC3)n2)cn1 | SCD1 (Homo sapiens) | % | 80.73
Cc1nn(C)c2cc(-c3noc(C4CCN(C(=O)CNC(=O)c5ccc(C(F)(F)F)cc5)CC4)n3)ccc12 | SCD1 (Homo sapiens) | % | 30.0
CCOc1ccc(-c2noc(C3CCN(C(=O)CNC(=O)c4ccccc4)CC3)n2)cc1OC | SCD1 (Homo sapiens) | % | 98.25
